All figures here come from patent US20240360165A1.

# target under test: CDK2/Cyclin E1 complex (Homo sapiens, UniProt P24941)
# assay: CDK2 inhibition assay (Caliper/LabChip EZ Reader kinase assay)
# Assay type: biochemical
# condition description: Table 1; CDK2/Cyclin E1 0.5 nM, ATP 2 mM, 35 min at 27° C.
Recorded IC50 for the following molecules

molecule: Fc1cc2[nH]cc(-c3nc(N[C@H]4CCCNC4)ncc3C(F)(F)F)c2cc1F
IC50: 0.02 to 0.2 µM
--
molecule: N#Cc1ccc2c(-c3nc(N[C@H]4CCC5(CCC5)NC4)ncc3C(F)(F)F)c[nH]c2c1 (single isomer, unassigned)
IC50: > 5 µM
--
molecule: OC1CC=C(c2cccc3c(-c4nc(N[C@H]5CCCNC5)ncc4C(F)(F)F)c[nH]c23)CC1 (stereo partly shown)
IC50: 0.2 to 5 µM
--
molecule: CN1CCC[C@H](Nc2ncc(Cl)c(-c3c[nH]c4ccccc34)n2)C1
IC50: 0.2 to 5 µM
